Test system: HCC1937
Experiment: normalised response (% of control), CellTox Green; higher = less cell death (100 = DMSO, 0 = benzethonium chloride kill control)
Conditions: incubation time: 72 h
Kindly supply the reported normalised response values for the records listed here.
One number for each entry, in %.

Completed entries (count: 5):
compound="CC[C@@H]1C(=O)N(C)c2cnc(Nc3ccc(C(=O)NC4CCN(C)CC4)cc3OC)nc2N1C1CCCC1 [BI 2536] (1000 nM)" study_system=HCC1937 measurement_label="normalised response" measured_value=109
compound="O=C(O)CCCCC(CCSCc1ccccc1)SCc1ccccc1 (stereo not drawn) [CPI-613] (1000 nM)" study_system=HCC1937 measurement_label="normalised response" measured_value=117
compound="CC[C@@H]1C(=O)N(C)c2cnc(Nc3ccc(C(=O)NC4CCN(C)CC4)cc3OC)nc2N1C1CCCC1 [BI 2536] (10 nM)" study_system=HCC1937 measurement_label="normalised response" measured_value=116
compound="CC(=O)Nc1cccc(-n2c(=O)n(C3CC3)c(=O)c3c(Nc4ccc(I)cc4F)n(C)c(=O)c(C)c32)c1 [Trametinib] (250 nM)" study_system=HCC1937 measurement_label="normalised response" measured_value=110
compound="C=CCc1cccc(/C=N/NC(=O)CN2CCN(Cc3ccccc3)CC2)c1O [PAC-1] (10000 nM)" study_system=HCC1937 measurement_label="normalised response" measured_value=96

Dear colleague, could you send me normalised response for each of the items below? Thanks.
1. Nc1ncn([C@H]2C[C@H](O)[C@@H](CO)O2)c(=O)n1 [Decitabine] (100 nM)
2. CCCS(=O)(=O)Nc1ccc(F)c(C(=O)c2c[nH]c3ncc(-c4ccc(Cl)cc4)cc23)c1F [Vemurafenib] (100 nM)
3. O=C(O)C1(C(=O)O)CCC1.[NH2-].[NH2-].[Pt+2] [Carboplatin] (10000 nM)
4. N#Cc1ccc(C(c2ccc(C#N)cc2)n2cncn2)cc1 [Letrozole] (10000 nM)
5. Nc1ncn([C@H]2C[C@H](O)[C@@H](CO)O2)c(=O)n1 [Decitabine] (10000 nM)
6. O=C(O)C(=O)O.[NH-][C@@H]1CCCC[C@H]1[NH-].[Pt+2] [Oxaliplatin] (10000 nM)
7. CC1=C(/C=C/C(C)=C/C=C/C(C)=C/C(=O)O)C(C)(C)CCC1 [Tretinoin] (10000 nM)
8. CC[C@H](Nc1ncnc2[nH]cnc12)c1nc2cccc(F)c2c(=O)n1-c1ccccc1 [GS-1101] (10000 nM)

1: 91.4; 2: 92.1; 3: 101; 4: 94.5; 5: 113; 6: 92.8; 7: 61.1; 8: 94.4

Dear colleague, could you send me normalised response for each of the items below? Thanks.
1. Nc1ncn([C@H]2C[C@H](O)[C@@H](CO)O2)c(=O)n1 [Decitabine] (1000 nM)
2. CCCCC(=O)OCC(=O)[C@]1(O)Cc2c(O)c3c(c(O)c2[C@@H](O[C@H]2C[C@H](NC(=O)C(F)(F)F)[C@H](O)[C@H](C)O2)C1)C(=O)c1c(OC)cccc1C3=O [Valrubicin] (500 nM)
3. C=CCc1cccc(/C=N/NC(=O)CN2CCN(Cc3ccccc3)CC2)c1O [PAC-1] (100 nM)
4. N#Cc1ccc(C(c2ccc(C#N)cc2)n2cncn2)cc1 [Letrozole] (1000 nM)
5. Cc1ccc(-c2cc(C(F)(F)F)nn2-c2ccc(S(N)(=O)=O)cc2)cc1 [Celecoxib] (100 nM)

[110, 167, 105, 67.6, 106]
